# experimental-system: T1, preformed binary complex of IL-18 wild type and un-tagged IL-18Rα wild type extracellular domain (human, UniProt Q14116 37-193; Q13478 20-329)
# T1 construct: interleukin-18, human, mature IL-18 (residues 1-157); numbers count on: the mature protein; IL-18 receptor alpha, human, extracellular domains, residues 20-329 of NM_003855; also called IL-18 WT/IL-18Rα WT complex; IL-18/IL-18Rα; source: IL-18: E. coli BL21(DE3), purified; IL-18Rα: silkworm larvae haemolymph, purified; un-tagged IL-18Rα saturated with 500 nM IL-18
# test-protocol: SPR; BIAcore 3000, 25 °C; C-terminal 6xHis IL-18Rβ (wild type or mutant) immobilised at about 100 RU on a Ni-NTA sensor chip; un-tagged IL-18Rα saturated with 500 nM IL-18 (preformed binary complex) injected as analyte in HBS-P; triplicate
# condition-summary: both partners purified
measurement-type: kon (M⁻¹ s⁻¹)
Write the value in M⁻¹ s⁻¹ as a bare number.

Item: human IL-18 receptor beta extracellular domain (residues 15-356), C-terminal 6xHis, E210A (receptor, UniProt O95256-1 15-356, looked up, IL-18 receptor beta, human, extracellular domains, residues 15-356 of NM_003853; also called IL-18Rβ E210A; source: silkworm (B. mori) larvae, BmNPV bacmid, haemolymph, purified (ion exchange, Ni-NTA, gel filtration); not shown: 6xHis, C-terminal, kept) ERIKGFNISGCSTKKLLWTYSTRSEEEFVLFCDLPEPQKSHFCHRNRLSPKQVPEHLPFMGSNDLSDVQWYQQPSNGDPLEDIRKSYPHIIQDKCTLHFLTPGVNNSGSYICRPKMIKSPYDVACCVKMILEVKPQTNASCEYSASHKQDLLLGSTGSISCPSLSCQSDAQSPAVTWYKNGKLLSVERSNRIVVDAVYDYHQGTYVCDYTQSDTVSSWTVRAVVQVRTIVGDTKLKPDILDPVEDTLEVELGKPLTISCKARFGFERVFNPVIKWYIKDSDLEWEVSVPEAKSIKSTLKDEIIERNIILEKVTQRDLRRKFVCFVQNSIGNTTQSVQLKEKR | kon: 71000

Given item human IL-18 receptor beta extracellular domain (residues 15-356), C-terminal 6xHis, S169A-T170A (receptor, UniProt O95256-1 15-356, looked up, IL-18 receptor beta, human, extracellular domains, residues 15-356 of NM_003853; also called IL-18RβS169A-T170A; source: silkworm (B. mori) larvae, BmNPV bacmid, haemolymph, purified (ion exchange, Ni-NTA, gel filtration); not shown: 6xHis, C-terminal, kept) ERIKGFNISGCSTKKLLWTYSTRSEEEFVLFCDLPEPQKSHFCHRNRLSPKQVPEHLPFMGSNDLSDVQWYQQPSNGDPLEDIRKSYPHIIQDKCTLHFLTPGVNNSGSYICRPKMIKSPYDVACCVKMILEVKPQTNASCEYSASHKQDLLLGAAGSISCPSLSCQSDAQSPAVTWYKNGKLLSVERSNRIVVDEVYDYHQGTYVCDYTQSDTVSSWTVRAVVQVRTIVGDTKLKPDILDPVEDTLEVELGKPLTISCKARFGFERVFNPVIKWYIKDSDLEWEVSVPEAKSIKSTLKDEIIERNIILEKVTQRDLRRKFVCFVQNSIGNTTQSVQLKEKR , the value recorded as its kon is 68000

Please fill in: kon reported for human IL-18 receptor beta extracellular domain (residues 15-356), C-terminal 6xHis, L167A (receptor, UniProt O95256-1 15-356, looked up, IL-18 receptor beta, human, extracellular domains, residues 15-356 of NM_003853; also called IL-18Rβ L167A; source: silkworm (B. mori) larvae, BmNPV bacmid, haemolymph, purified (ion exchange, Ni-NTA, gel filtration); not shown: 6xHis, C-terminal, kept) ERIKGFNISGCSTKKLLWTYSTRSEEEFVLFCDLPEPQKSHFCHRNRLSPKQVPEHLPFMGSNDLSDVQWYQQPSNGDPLEDIRKSYPHIIQDKCTLHFLTPGVNNSGSYICRPKMIKSPYDVACCVKMILEVKPQTNASCEYSASHKQDLLAGSTGSISCPSLSCQSDAQSPAVTWYKNGKLLSVERSNRIVVDEVYDYHQGTYVCDYTQSDTVSSWTVRAVVQVRTIVGDTKLKPDILDPVEDTLEVELGKPLTISCKARFGFERVFNPVIKWYIKDSDLEWEVSVPEAKSIKSTLKDEIIERNIILEKVTQRDLRRKFVCFVQNSIGNTTQSVQLKEKR = 76000

Item: human IL-18 receptor beta extracellular domain (residues 15-356), C-terminal 6xHis, wild type, from silkworm (receptor, UniProt O95256-1 15-356, looked up, IL-18 receptor beta, human, extracellular domains, residues 15-356 of NM_003853; also called IL-18Rβ; IL-18Rβ WT; source: silkworm (B. mori) larvae, BmNPV bacmid, haemolymph, purified (ion exchange, Ni-NTA, gel filtration); not shown: 6xHis, C-terminal, kept) ERIKGFNISGCSTKKLLWTYSTRSEEEFVLFCDLPEPQKSHFCHRNRLSPKQVPEHLPFMGSNDLSDVQWYQQPSNGDPLEDIRKSYPHIIQDKCTLHFLTPGVNNSGSYICRPKMIKSPYDVACCVKMILEVKPQTNASCEYSASHKQDLLLGSTGSISCPSLSCQSDAQSPAVTWYKNGKLLSVERSNRIVVDEVYDYHQGTYVCDYTQSDTVSSWTVRAVVQVRTIVGDTKLKPDILDPVEDTLEVELGKPLTISCKARFGFERVFNPVIKWYIKDSDLEWEVSVPEAKSIKSTLKDEIIERNIILEKVTQRDLRRKFVCFVQNSIGNTTQSVQLKEKR | kon: 11000
